# target desc: T1, 9A
# T1 construct: also called HLA-A2 / point-mutant NY-ESO peptide 9A complex on T2 cells
# experiment summary: flow cytometry on peptide-pulsed T2 cells, scFv 100 nM
reported endpoint: standardized gMFI
Answer with a number only.

Exam item: # get_value(readout='standardized gMFI', item= NYA-2061 (scFv, also called NYA-2061 tag adduct) scFv: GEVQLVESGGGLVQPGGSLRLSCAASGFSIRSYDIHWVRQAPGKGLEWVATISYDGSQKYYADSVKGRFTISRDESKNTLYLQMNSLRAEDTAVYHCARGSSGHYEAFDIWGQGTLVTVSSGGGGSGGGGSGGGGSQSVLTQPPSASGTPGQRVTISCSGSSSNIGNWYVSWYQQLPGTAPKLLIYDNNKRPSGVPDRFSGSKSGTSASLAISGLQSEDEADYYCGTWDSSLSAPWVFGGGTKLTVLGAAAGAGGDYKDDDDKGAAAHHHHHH )
Marked response: 9.16
